Ref: PubChem BioAssay (NCI)

Test system: HCT-116 colon
test_description: NCI-60 one-dose screen, 48 h (100 = growth as untreated, 0 = no growth, -100 = all killed)
test_context: 10 µM unless noted
Procedure: Growth inhibition of the HCT-116 human tumor cell line is measured as a screen for anti-cancer activity. Cells are grown in 96 well plates and exposed to the test compound for 48 hours. Compounds are tested at a single concentration, which is 10^-5 M for most compounds. The reported endpoint is percent growth (GI% or GIPRCNT), where numbers from 0 - 100% represent growth inhibition, and numbers from -100% - 0 represent cell death. For example, a value of 40 represents 60% growth inhibition. […]
Compounds without any hit were thinned out: in the full panel of roughly 83,000, 20% have a hit.
property: growth (%)

>>> value_reported("Cc1ccc(C(=O)NCCNc2nccc(-c3c(-c4cccc(F)c4)nc4sccn34)n2)cc1")
27
>>> value_reported("COc1ccc(-c2nc3sc(-c4ccc(Cl)cc4)cn3n2)cc1")
-16.3
>>> value_reported("Cc1[nH]c(C(=O)Nc2ccc(C(=O)NCCN)cc2OC(C)C)c(Cl)c1Cl")
-50.1
>>> value_reported("CCCCCCCCCCCCCCCCCC1OCC(COC(=O)O[C@]2(CC)C(=O)OCc3c2cc2n(c3=O)Cc3cc4ccccc4nc3-2)O1 (stereo not given in full)")
66.8
>>> value_reported("COc1nc2ccc(C)cc2cc1-c1nc2c(cnn2-c2ccccc2)c(=O)[nH]1")
67.2
